Readings of Dmax for the listed molecules
Biological target: CDK2 (Homo sapiens (Human))
Experiment: CDK2 NanoBiT assay (HiBiT-tagged CDK2 degradation)
Assay type: cell-based
Conditions: HEK293, HEK293 clonal line, C-terminal HiBiT tag on CDK2, LgBiT; 24 hours

> print(dat)
                                   molecule                       system  readout.kind  endpoint.value
1  Cc1ccc(N(C)C(=O)N2CC(OC(=O)NC3CN(c4cc(F)c(C5CCC(=O)NC5=O)c(F)c4)C3)C2)cn1 (stereo not shown) [Compound 109]  CDK2 (Homo sapiens (Human))          Dmax       10 to 50%
2  O=C1CCC(c2c(F)cc(N3CC(Nc4cc(C5CC6(CCC6)C5)ccn4)C3)cc2F)C(=O)N1 (stereo not shown) [Compound 106]  CDK2 (Homo sapiens (Human))          Dmax       50 to 80%
3  O=C1CCC(c2c(F)cc(N3CC(NC(=O)OCc4ccc(OC(F)(F)F)cc4)C3)cc2F)C(=O)N1 (stereo not shown) [Compound 35]  CDK2 (Homo sapiens (Human))          Dmax           > 80%
4  Cc1ccc(N(C)C(=O)C23CC(OC(=O)NC4CN(c5cc(F)c(C6CCC(=O)NC6=O)c(F)c5)C4)(C2)C3)c(C)c1 (stereo not shown) [Compound 117]  CDK2 (Homo sapiens (Human))          Dmax       10 to 50%
5  Cc1cccc(N(C)C(=O)N2CC(OC(=O)NC3CN(c4cc(F)c(C5CCC(=O)NC5=O)c(F)c4)C3)C2)c1 (stereo not shown) [Compound 10]  CDK2 (Homo sapiens (Human))          Dmax           > 80%

Inquiry: Print CDK2 (Homo sapiens (Human)) Dmax for CN(C)C(=O)N1CC[C@@H](OC(=O)NC2CN(c3cc(F)c(C4CCC(=O)NC4=O)c(F)c3)C2)C1 (stereo partly shown) [Compound 18] .
Reply text: 10 to 50%

Inquiry: Name the value of Dmax reported for O=C1CCC(c2ccc(N3CC(NC(=O)OCC4CC5(CCC5)C4)C3)cc2)C(=O)N1 (stereo not shown) [Compound 62] when tested on CDK2 (Homo sapiens (Human)).
Reply text: > 80%
